Below, each entry is listed alongside its reported fold change (FC).
system: Hepatitis C virus; test: Ratio of EC50 for wild-type Hepatitis C virus isolate Con1 to EC50 for Hepatitis C virus isolate Con1 with NS5B polymerase I482L mutant in human Huh7.5 cells by hRLuc reporter gene assay; format: functional, Hepacivirus hominis, Huh-7
// no unit string in output, number only

CNC(=O)c1c(-c2ccc(F)cc2)oc2cc(N(CCO)S(C)(=O)=O)c(C3CC3)cc12: 1
CC(C)C#Cc1cc(N(C(=O)[C@H]2CC[C@H](C)CC2)C(C)C)c(C(=O)O)s1: 201
NC(=O)COc1ccc2c(c1)S(=O)(=O)N=C(c1c(O)c3ccccc3n(NC3CCC3)c1=O)N2: 0.5
O=C(O)c1ccc2c(c1)nc(-c1ccc(OCc3cc(C(=O)N4CCC(O)CC4)ccc3-c3ccc(Cl)cc3)cc1F)n2C1CCCCC1: 3

Proceeding to the next molecule to report its fold change (FC).
# fold change (FC) of C[C@@]1(O)[C@H](O)[C@@H](CO)O[C@H]1n1ccc(N)nc1=O = 1

----------
test system: Hepatitis C virus; assay: Antiviral activity against Hepatitis C virus isolate Con1 transfected with NS5B polymerase of HCV genotype 5a infected in human Huh7.5 cells assessed as decrease in viral RNA replication after 3 days by hRLuc reporter gene assay; format: functional, organism-based, Hepacivirus hominis; conditions: Con1, Huh-7, 72 h
propertyMeasured: log10 EC50 (log10 of the value in nM)
Note: values are log10 of EC50 expressed in nM.

Here's what some known entries look like.
NC(=O)COc1ccc2c(c1)S(=O)(=O)N=C(c1c(O)c3ccccc3n(NC3CCC3)c1=O)N2: 3.70
COc1ccc2c(O[C@@H]3C[C@H]4C(=O)N[C@@]5(C(=O)O)C[C@@H]5/C=C\CCCCC[C@H](NC(=O)OC(C)(C)C)C(=O)N4C3)cc(-c3ccccn3)nc2c1: 1.36
CNC(=O)c1c(-c2ccc(F)cc2)oc2cc(N(CCO)S(C)(=O)=O)c(C3CC3)cc12: 0.51
O=C(O)c1ccc2c(c1)nc(-c1ccc(OCc3cc(C(=O)N4CCC(O)CC4)ccc3-c3ccc(Cl)cc3)cc1F)n2C1CCCCC1: 2.20

# log10 EC50 of CC(C)C#Cc1cc(N(C(=O)[C@H]2CC[C@H](C)CC2)C(C)C)c(C(=O)O)s1 = 2.30
